Where these numbers come from: ChEMBL document CHEMBL1153901

- Tested on: Pseudomonas aeruginosa
- Procedure Details: Antibacterial activity against Pseudomonas aeruginosa after 24 hrs by […] microdilution method
- Type: functional, organism-based
Label true (1) when IC50 is strictly below 0.1 µg/mL; at or above that, label false (0).

molecule=COCc1cn(CCn2c([N+](=O)[O-])cnc2C)nn1 test_system="Pseudomonas aeruginosa" class_label="false (0)"
molecule=Cc1ncc([N+](=O)[O-])n1CCn1cc(COc2ccccc2Cl)nn1 test_system="Pseudomonas aeruginosa" class_label="false (0)"
molecule=Cc1ccccc1OCc1cn(CCn2c([N+](=O)[O-])cnc2C)nn1 test_system="Pseudomonas aeruginosa" class_label="false (0)"
molecule=Cc1ncc([N+](=O)[O-])n1CCn1cc(-c2cccnc2)nn1 test_system="Pseudomonas aeruginosa" class_label="false (0)"
molecule="CN(C)[C@@H]1C(O)=C(C(N)=O)C(=O)[C@@]2(O)C(O)=C3C(=O)c4c(O)cccc4[C@@](C)(O)[C@H]3C[C@@H]12 [TETRACYCLINE]" test_system="Pseudomonas aeruginosa" class_label="true (1)"
molecule=Cc1ncc([N+](=O)[O-])n1CCn1cc(COc2ccccc2C=O)nn1 test_system="Pseudomonas aeruginosa" class_label="false (0)"
molecule=Cc1ncc([N+](=O)[O-])n1CCn1cc(CBr)nn1 test_system="Pseudomonas aeruginosa" class_label="false (0)"
molecule=Cc1ncc([N+](=O)[O-])n1CCn1cc(COc2ccc(Cl)cc2)nn1 test_system="Pseudomonas aeruginosa" class_label="true (1)"
molecule=Cc1ncc([N+](=O)[O-])n1CCn1cc(-c2ccccc2)nn1 test_system="Pseudomonas aeruginosa" class_label="false (0)"
molecule=Cc1ccc(OCc2cn(CCn3c([N+](=O)[O-])cnc3C)nn2)cc1 test_system="Pseudomonas aeruginosa" class_label="true (1)"
molecule=Cc1ncc([N+](=O)[O-])n1CCn1cc(CO)nn1 test_system="Pseudomonas aeruginosa" class_label="false (0)"
molecule=Cc1ncc([N+](=O)[O-])n1CCn1cc(C2(O)CCCCC2)nn1 test_system="Pseudomonas aeruginosa" class_label="false (0)"
molecule=CCC(=O)OCc1cn(CCn2c([N+](=O)[O-])cnc2C)nn1 test_system="Pseudomonas aeruginosa" class_label="false (0)"
molecule=Cc1ncc([N+](=O)[O-])n1CCn1cc(CCO)nn1 test_system="Pseudomonas aeruginosa" class_label="false (0)"
molecule=Cc1ncc([N+](=O)[O-])n1CCn1cc(COc2ccccc2[N+](=O)[O-])nn1 test_system="Pseudomonas aeruginosa" class_label="false (0)"
molecule=Cc1ncc([N+](=O)[O-])n1CCn1cc(COc2ccccc2)nn1 test_system="Pseudomonas aeruginosa" class_label="false (0)"
molecule=Cc1cccc(OCc2cn(CCn3c([N+](=O)[O-])cnc3C)nn2)c1 test_system="Pseudomonas aeruginosa" class_label="true (1)"
molecule=CC(=O)c1ccc(OCc2cn(CCn3c([N+](=O)[O-])cnc3C)nn2)cc1 test_system="Pseudomonas aeruginosa" class_label="false (0)"
molecule=Cc1ncc([N+](=O)[O-])n1CCn1cc(COc2ccc(C=O)cc2)nn1 test_system="Pseudomonas aeruginosa" class_label="true (1)"
molecule="Cc1ncc([N+](=O)[O-])n1CCn1cc(COC2CCCCO2)nn1 (configuration not stated)" test_system="Pseudomonas aeruginosa" class_label="false (0)"
molecule=Cc1ncc([N+](=O)[O-])n1CCn1cc(-c2ccccn2)nn1 test_system="Pseudomonas aeruginosa" class_label="false (0)"
molecule=Cc1ncc([N+](=O)[O-])n1CCn1cc(COc2ccc([N+](=O)[O-])cc2)nn1 test_system="Pseudomonas aeruginosa" class_label="false (0)"
